Measured koff of individual entries
Biological target: T1, human GPVI-Fc fusion protein (human, UniProt Q9HCN6 21-267, limits assumed)
T1 construct: also called human GPVI protein antigen
T1 sequence (looked up): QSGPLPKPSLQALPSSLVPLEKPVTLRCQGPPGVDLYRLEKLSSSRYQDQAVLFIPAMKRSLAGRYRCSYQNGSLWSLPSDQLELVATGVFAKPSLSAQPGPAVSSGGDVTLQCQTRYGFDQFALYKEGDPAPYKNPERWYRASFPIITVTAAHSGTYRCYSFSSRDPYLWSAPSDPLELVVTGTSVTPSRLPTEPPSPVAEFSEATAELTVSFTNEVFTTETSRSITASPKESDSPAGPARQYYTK
Assay: BLI (Octet), GPVI-Fc on biosensor, 1:1 fit
Give your result in s⁻¹ as a bare value.

# annotated cases, reported koff shown
>>> value("HC1 LC4 humanized Fab (Fab, V domains shown, also called VH1:VL4) VH: QVQLQESGPGLVKPSETLSLTCTASGFSLTSYGVTWIRQPPGKGLEWIGVIWGDGSTNYHSGLRSRVTISVDTSKSQFSLKLSSVTAADTAVYYCAKPIYYDFDDDAMDYWGQGTLVTVSS VL: DIVMTQSPATLSLSPGDRATLSCKASQNVGTYVAWYQQKPGQAPRLLIYSASYRCSGIPARFSGSGSGTDFTLTISSLQSEDFAVYYCHQYNNYPLTFGGGTKVEIKR")
0.000333
>>> value("HC3 LC2 humanized Fab (Fab, V domains shown, also called VH3:VL2) VH: QVQLVESGGGVVQPGRSLRLSCVASGFSLTSYGVTWVRQAPGKGLEWVAVIWGDGSTNYHSGLRSRFTISRDNSKNTMFLQMNSLRADDTAVYYCAKPIYYDFDDDAMDYWGQGTLVTVSS VL: DIQMTQSPSSLSASVGDRVTITCKASQNVGTYVAWFQQRPGKAPKSLIYSASYRCSGVPSKFSGSGSGTDFTLTINSLQPEDFATYYCHQYNNYPLTFGQGTKVEIKR")
0.000362

-- ask Consider the binder HC5 LC1 humanized Fab (Fab, V domains shown, also called VH5:VL1) VH: QVQLQESGPGLVKPSETLSLTCTVSGFSLTSYGVTWIRQPPGKGLEWIGVIWGDGSTNYHSGLRSRVTISVDTSKNQFSLKLSSVTAADTAVYYCAKPIYYDFDDDAMDYWGQGTSVTVSS VL: EIVLTQSPSSLSASVGDRVTITCKASQNVGTYVAWFQQKPGKAPKSLIYSASYRCSGVPSKFSGSGSGTDFTLTISSLQPEDFATYYCHQYNNYPLTFGQGTKLEIKR . State its measured koff.
-- reply 0.000261

-- ask Consider the binder HC2 LC1 humanized Fab (Fab, V domains shown, also called VH2:VL1) VH: EVQLVESGPGLVKPSETLSLTCTVSGFSLTSYGVTWIRQPPGKGLEWIGVIWGDGSTNYHSGLRSRVTISVDTSKNQFSLKLSSVTAADTAVYYCAKPIYYDFDDDAMDYWGQGTLVTVSS VL: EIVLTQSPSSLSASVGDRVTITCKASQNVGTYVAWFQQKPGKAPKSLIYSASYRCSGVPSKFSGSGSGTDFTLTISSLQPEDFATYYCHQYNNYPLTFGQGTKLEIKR . State its measured koff.
-- reply 0.000189

-- ask Consider the binder HC4 LC1 humanized Fab (Fab, V domains shown, also called VH4:VL1) VH: QVQLVESGGGVVQPGRSLRLSCAASGFSLTSYGVTWVRQSPGKGLEWVAVIWGDGSTNYHSGLRSRLTISRDNSKNTLYLEMNSLRTEDTATYYCAKPIYYDFDDDAMDYWGQGTKVTVSS VL: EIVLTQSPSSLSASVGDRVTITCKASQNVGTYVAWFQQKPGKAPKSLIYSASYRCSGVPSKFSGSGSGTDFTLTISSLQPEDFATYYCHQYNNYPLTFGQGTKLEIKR . State its measured koff.
-- reply 0.000339
